Tested on: Wnt5a (protein binding on small-molecule microarray)
assay-explanation: Wnt5a binders on small-molecule microarray, primary screen, biophysical, 635/667 nm fluorescence (AID 1142);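 note: fluorescence read at 667 nm with signal to noise per printed feature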
condition-set: 635 nm fluorescence, higher = more signal
Decide by composite z-score: equal to or exceeding -0.07 means yes, less means no.

{"compound": "CCOC(=O)[C@H](Cc1ccccc1)NC(=O)CCC1CC(OC(=O)NCc2cccc3ccccc23)CC2(CCCC(COC(=O)NCc3ccccc3)O2)O1 (some centres undefined)", "qualitative-label": "yes"}
{"compound": "O=C1CCCC=C1C(O)CCOC(c1ccccc1)(c1ccccc1)c1ccccc1 (centres undefined)", "qualitative-label": "no"}
{"compound": "CC(CCN1CCCCc2nc(C)c(C)cc21)=NOC[C@@H](O)COCc1ccco1", "qualitative-label": "yes"}
{"compound": "CCOC(=O)[C@H](CC(C)C)NC(=O)CCC1CC(OC(=O)NCc2ccc3c(c2)OCO3)CC2(CCCC(COC(=O)NCC(c3ccccc3)c3ccccc3)O2)O1 (some centres undefined)", "qualitative-label": "yes"}
{"compound": "CO[C@H]1COC(=O)CC=C[C@H](C)[C@@H](OC)COC(=O)[C@@H](C)NC(=O)CC=C[C@@H]1C", "qualitative-label": "yes"}
{"compound": "CC(C)=CCCC(C)=CCON=C1C[C@@H](O)[C@@H](O)[C@@H]2[C@@H]3C(=O)N(C(C)(C)C)C(=O)[C@@H]3CC[C@@H]12", "qualitative-label": "yes"}
{"compound": "CC(C)CON=C1C[C@@H](O)[C@@H](O)[C@@H]2[C@@H]3C(=O)N(C(C)(C)C)C(=O)[C@@H]3CC[C@H]12", "qualitative-label": "no"}
{"compound": "COC(=O)[C@@H]1CC[C@H](C)[C@@H](c2ccc(C)cc2)N1C(=O)c1ccc(C=NOCC[C@@H]2C=C[C@H](OC(C)=O)[C@@H](COC(C)=O)O2)cc1", "qualitative-label": "yes"}
{"compound": "CO[C@H]1COC(=O)CC=C[C@H](C)COC(=O)[C@@H](C)NC(=O)CC=C[C@@H]1C", "qualitative-label": "yes"}
{"compound": "CC(C)=CCCC(C)=CCON=C1C[C@@H](O)[C@@H](O)[C@@H]2[C@@H]3C(=O)N(c4cccc(Oc5ccccc5)c4)C(=O)[C@@H]3CC[C@@H]12", "qualitative-label": "no"}
{"compound": "CCCNC(=O)OC[C@H]1O[C@H](CCON=C(C)CCC(=O)OC[C@H]2O[C@H](c3ccccc3)C=C[C@@H]2Oc2ccc(OC)cc2)C=C[C@@H]1Oc1ccc(OC)cc1", "qualitative-label": "no"}
{"compound": "CCC=CCCC(OC(=O)c1ccc(Br)cc1)C1=CCCCC1=O (centres undefined)", "qualitative-label": "yes"}
{"compound": "CON=C(C)CCC(=O)OC[C@H]1O[C@H](c2ccccc2)C=C[C@@H]1Oc1ccc(OC)cc1", "qualitative-label": "yes"}
{"compound": "CC(C)(C)N1C(=O)[C@H]2[C@H]3[C@H](O)[C@H](O)CC(=NO[C@@H]4O[C@H](CO)[C@@H](O)[C@H](O)[C@H]4O)[C@H]3CC[C@H]2C1=O", "qualitative-label": "yes"}
{"compound": "CC(C)[C@@H](OCc1ccccc1)[C@H](C)C=NOC[C@@H](O)COCc1ccco1", "qualitative-label": "no"}
{"compound": "COC(=O)CC=C[C@@H](C)[C@@H](C=NO[C@H](C)c1cn([C@@H]2COC[C@H]2O)nn1)NS(=O)(=O)c1ccc(C)cc1", "qualitative-label": "yes"}
{"compound": "CCc1cc2c(nc1CC)CCN(CCC(C)=NO[C@H](C)c1cn([C@@H]3COC[C@H]3O)nn1)C2", "qualitative-label": "no"}
{"compound": "COc1ccc(O[C@H]2C=C[C@@H](c3ccccc3)O[C@@H]2CON=C(C)CCN2CCc3nc(-c4ccccc4)c(-c4ccccc4)cc3C2)cc1", "qualitative-label": "no"}
{"compound": "CCOC(=O)[C@H](CC(C)C)NC(=O)CCC1CC(OC(=O)NCc2cccc3ccccc23)CC2(CCCC(COC(=O)NCc3ccncc3)O2)O1 (some centres undefined)", "qualitative-label": "yes"}
{"compound": "COC(=O)[C@H](C)NC(=O)CCC1CC(OC(=O)NCCc2ccc(F)cc2)CC2(CCCC(COC(=O)NCc3cccc(C(F)(F)F)c3)O2)O1 (some centres undefined)", "qualitative-label": "yes"}
{"compound": "CCOC(=O)[C@H](CC(C)C)NC(=O)CCC1CC(OC(=O)NCCc2ccc(F)cc2)CC2(CCCC(COC(=O)NCCc3ccc(Cl)cc3)O2)O1 (some centres undefined)", "qualitative-label": "yes"}
{"compound": "COC(=O)[C@@H]1CC[C@H](C)[C@@H](c2ccc(C)cc2)N1C(=O)c1ccc(C=NO[C@@H](C)c2cn([C@H](CO)Cc3ccccc3)nn2)cc1", "qualitative-label": "yes"}
{"compound": "C#CCCCON=C1C[C@@H](O)[C@@H](O)[C@@H]2[C@@H]3C(=O)N(CC)C(=O)[C@@H]3CC[C@@H]12", "qualitative-label": "no"}
{"compound": "COc1cc(O)c(C(=O)C=Cc2ccc3c(c2)OCO3)c(OC)c1", "qualitative-label": "yes"}
{"compound": "CO[C@H]1COC(=O)CC=C[C@@H](C)[C@H](OC)COC(=O)CCC[C@@H]1C", "qualitative-label": "yes"}
{"compound": "CCN1C(=O)[C@H]2[C@H]3[C@H](O)[C@H](O)CC(=O)[C@H]3CC[C@H]2C1=O", "qualitative-label": "yes"}
{"compound": "C=CC[C@@H]1C=C[C@H](ON=C2[C@H]3CCn4c(=O)n(-c5ccccc5)c(=O)n4[C@H]3[C@H](O)[C@@H]3O[C@H]23)[C@@H](CO)O1", "qualitative-label": "yes"}
{"compound": "CCOC(=O)[C@H](Cc1ccccc1)NC(=O)CCC1CC(OC(=O)NCc2ccc3c(c2)OCO3)CC2(CCCC(COC(=O)NCCc3ccccc3OC)O2)O1 (some centres undefined)", "qualitative-label": "yes"}
